Target: AC1 (Homo sapiens, UniProt Q08828)
Sequence (Q08828 whole entry): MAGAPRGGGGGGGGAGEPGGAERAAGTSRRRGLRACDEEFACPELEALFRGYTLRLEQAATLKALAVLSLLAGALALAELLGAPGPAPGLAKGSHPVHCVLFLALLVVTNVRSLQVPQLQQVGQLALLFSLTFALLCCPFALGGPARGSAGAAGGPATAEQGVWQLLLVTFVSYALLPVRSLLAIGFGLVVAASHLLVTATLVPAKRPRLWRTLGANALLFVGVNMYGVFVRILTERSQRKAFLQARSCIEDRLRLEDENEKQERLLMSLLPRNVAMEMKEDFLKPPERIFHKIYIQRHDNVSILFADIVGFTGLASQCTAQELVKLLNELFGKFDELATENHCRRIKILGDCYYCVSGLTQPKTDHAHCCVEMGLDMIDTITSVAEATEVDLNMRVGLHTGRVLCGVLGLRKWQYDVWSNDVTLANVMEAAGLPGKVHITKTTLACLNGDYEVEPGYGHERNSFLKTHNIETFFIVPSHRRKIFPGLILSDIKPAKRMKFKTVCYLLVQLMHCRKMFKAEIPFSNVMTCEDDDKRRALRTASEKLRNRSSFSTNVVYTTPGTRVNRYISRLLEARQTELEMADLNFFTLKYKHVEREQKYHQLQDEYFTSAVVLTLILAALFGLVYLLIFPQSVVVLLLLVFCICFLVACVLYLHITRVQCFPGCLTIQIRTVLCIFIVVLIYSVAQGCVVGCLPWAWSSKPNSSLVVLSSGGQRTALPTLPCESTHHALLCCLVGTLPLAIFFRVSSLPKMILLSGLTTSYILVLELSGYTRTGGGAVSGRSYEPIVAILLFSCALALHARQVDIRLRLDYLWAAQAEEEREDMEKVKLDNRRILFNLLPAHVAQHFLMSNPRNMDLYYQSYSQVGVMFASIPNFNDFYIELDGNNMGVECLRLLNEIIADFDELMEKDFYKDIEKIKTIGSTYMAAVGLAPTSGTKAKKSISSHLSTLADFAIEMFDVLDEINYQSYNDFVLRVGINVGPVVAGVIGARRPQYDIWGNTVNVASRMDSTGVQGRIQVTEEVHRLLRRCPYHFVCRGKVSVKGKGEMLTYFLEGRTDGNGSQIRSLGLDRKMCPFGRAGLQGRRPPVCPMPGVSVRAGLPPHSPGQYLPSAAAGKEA
Assay: cAMP accumulation (HTRF) in HEK cells stably expressing AC1, stimulated with A23187
Format: cell-based
Set-up: expressed in transfected cells; host or cells: HEK cells stably expressing AC1 (HEK-AC1), G418 selection
Conditions: Table 1; HEK-AC1 cells, A23187-stimulated cAMP accumulation; read-out: AC1 IC50
quantity_kind: IC50 (nM)

Examples with answers:
molecule="CCc1cc(=O)[nH]c(-n2nc(C)cc2NC(=O)Cc2cccc(C)c2)n1 [AC10075]" quantity_kind=IC50 quantitative_result=10000
molecule="CCc1cc(=O)[nH]c(-n2nc(C)cc2NC(=O)c2ccc(Cl)cc2)n1 [AC10058]" quantity_kind=IC50 quantitative_result=300
molecule="CCc1cc(=O)[nH]c(-n2nc(C)cc2NC(=O)c2ccccc2CC)n1 [AC10074]" quantity_kind=IC50 quantitative_result=2800
molecule="CCc1cc(=O)[nH]c(-n2nc(C)cc2NC(=O)c2cccc(C(C)C)c2)n1 [AC10087]" quantity_kind=IC50 quantitative_result=400
molecule="CCc1cc(=O)[nH]c(-n2nc(C)cc2NC(=O)c2ccccc2F)n1 [AC10048]" quantity_kind=IC50 quantitative_result=1500

a: CCc1cc(=O)[nH]c(-n2nc(C)cc2NC(=O)c2cccc(SC)c2)n1 [AC10088]
b: CCc1cc(=O)[nH]c(-n2nc(C)cc2NC(=O)c2cccc(C(F)(F)F)c2)n1 [AC10089]
c: CCc1cc(=O)[nH]c(-n2nc(C)cc2NC(=O)c2ccc(OCOC)cc2)n1 [AC10071]
Problem: Please list the entries, largest IC50 first. Response field: labels, in requested order.
Result: c, b, a
(c: 3200 nM, b: 700 nM, a: 400 nM)
